Catalogue of EC50 GlucagonR [pM], CRE luciferase reporter gene assay values
Target: human glucagon receptor (human, UniProt P47871 26-477)
Sequence (P47871 26-477): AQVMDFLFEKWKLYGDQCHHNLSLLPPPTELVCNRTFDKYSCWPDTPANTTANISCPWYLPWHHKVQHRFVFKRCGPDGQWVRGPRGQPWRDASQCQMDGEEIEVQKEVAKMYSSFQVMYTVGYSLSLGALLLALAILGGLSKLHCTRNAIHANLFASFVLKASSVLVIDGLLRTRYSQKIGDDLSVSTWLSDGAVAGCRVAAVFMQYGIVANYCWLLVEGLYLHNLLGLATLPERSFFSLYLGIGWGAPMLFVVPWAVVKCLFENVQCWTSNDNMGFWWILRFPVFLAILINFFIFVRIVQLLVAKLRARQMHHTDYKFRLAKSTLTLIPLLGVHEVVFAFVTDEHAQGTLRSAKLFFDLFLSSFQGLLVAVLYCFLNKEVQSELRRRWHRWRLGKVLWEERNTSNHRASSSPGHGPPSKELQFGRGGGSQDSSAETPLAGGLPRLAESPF
Assay: cell-based or functional assay
*1 amine or outer side, *2 acyl side, *3 side chain or, on linkers, in order; H or OH if unused. Side-chain parts run from the residue outwards. [ ]: non-standard residue; d: D form. The star is where a group is joined. C18 diacid = O=C(O)CCCCCCCCCCCCCCCCC(=O)*; γGlu = O=C(O)[C@H](CCC(=O)[*:2])N[*:1]; Desaminohistidyl = O=C(CCc1c[nH]cn1)*; Ac4c = NC1(C(=O)O)CCC1

binder: [Desaminohistidyl][Ac4c]HGTFTSDVSKYLEGRAAREFIAWLLK([Gly-Ser-Glu-Gly-Ser-γGlu-γGlu-C18 diacid])T-NH2
result value: 28 pM

Request: # lookup: EC50 GlucagonR [pM], CRE luciferase reporter gene assay of [Desaminohistidyl]AHGTFTSDVSKYLEGRAAREFIAWLLK([Ado-Ado-γGlu-γGlu-γGlu-C18 diacid])T-NH2
Result: 229 pM
